# System: SLVL (B-Cell Non-Hodgkin's Lymphoma);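 note: after 72 h of two-drug dosing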
# assayProtocol: Bliss excess, mean over the matrix (fraction); higher = more synergy
Property: Bliss excess; scope: individual compounds

| compound | Bliss excess |
| --- | --- |
| NC1(C(=O)N[C@@H](CCO)c2ccc(Cl)cc2)CCN(c2ncnc3[nH]ccc23)CC1 [Capivasertib] + CCN(CCO)CCCOc1ccc2c(Nc3cc(CC(=O)Nc4cccc(F)c4)[nH]n3)ncnc2c1 [AZD2811] (first compound max 10 µM, 7x7, partner max 1 µM) | -0.0608 |
| CC1(C)CCC(CN2CCN(c3ccc(C(=O)NS(=O)(=O)c4ccc(NCC5CCOCC5)c([N+](=O)[O-])c4)c(Oc4cnc5[nH]ccc5c4)c3)CC2)=C(c2ccc(Cl)cc2)C1 [Venetoclax] + C[C@@H]1COCCN1C2=NC(=NC(=C2)C3(CC3)[S@](=N)(=O)C)C4=C5C=CNC5=NC=C4 [AZD6738] (first compound max 1 µM, 7x7, partner max 10 µM) | -0.0162 |
